Experiment Summary: Intranasal PK profiles of conjugated oxymorphone in rats (released oxymorphone in plasma by LC-MS/MS)
Format: in vivo
Measurement Context: 0.2 mg/kg oxymorphone equivalent, relative to the OM control
Experimental: Intranasal PK curves were determined for a number of prodrug conjugates of the present technology. Rats were intranasally administered at an amount of the conjugate equivalent to 0.2 mg/kg of freebase oxymorphone and the plasma concentrations of released oxymorphone were measured over time by LC-MS/MS. All PK parameters from the above experiments were calculated and expressed as % change from the control (OM). […]
Readout Kind: %-AUC
Your answer should be a number followed by the unit of measure.

Consider the following illustrative entries.
{"Compound": "COc1ccc(C(=O)OC2=CCC3(O)C4Cc5ccc(OC(=O)c6ccc(OC)cc6)c6c5C3(CCN4C)C2O6)cc1 (stereo not drawn) [3,6-(4-MeO-Bz)2-OM]", "%-AUC": "30%"}
{"Compound": "CN1CC[C@]23c4c5ccc(O)c4O[C@H]2C(OC(=O)c2cc(-c4ccc(F)cc4F)ccc2O)=CC[C@@]3(O)[C@H]1C5 [6-Diflunisal-OM]", "%-AUC": "25%"}
{"Compound": "COc1ccc(C(=O)Oc2ccc3c4c2O[C@H]2C(=O)CC[C@@]5(O)[C@@H](C3)N(C)CC[C@]425)cc1 [3-(4-MeO-Bz)-OM]", "%-AUC": "76%"}
{"Compound": "CN1CC[C@]23c4c5ccc(OC(=O)c6cc(-c7ccc(F)cc7F)ccc6O)c4O[C@H]2C(=O)CC[C@@]3(O)[C@H]1C5 [3-Diflunisal-OM]", "%-AUC": "131%"}
{"Compound": "CN1CC[C@]23c4c5ccc(OC(=O)c6ccccc6O)c4O[C@H]2C(=O)CC[C@@]3(O)[C@H]1C5 [3-(2-OH-Bz)-OM]", "%-AUC": "66%"}

// returns reported %-AUC for input CN1CC[C@]23c4c5ccc(O)c4O[C@H]2C(OC(=O)c2ccccc2)=CC[C@@]3(O)[C@H]1C5 [Conjugate 6-Bz-OM]
42%

====

Experiment Summary: Oral PK profiles of conjugated oxymorphone in rats (released oxymorphone in plasma by LC-MS/MS)
Assay type: in vivo, Sprague-Dawley rats
Measurement Context: 2 mg/kg oxymorphone equivalent, relative to the OM control
Readout Kind: %-Tmax (%)
Reply numerically in %, unit not repeated.

Sample records with %-Tmax:
{"Compound": "COc1ccc(C(=O)OC2=CC[C@@]3(O)[C@H]4Cc5ccc(O)c6c5[C@@]3(CCN4C)[C@H]2O6)cc1 [6-(4-MeO-Bz)-OM]", "%-Tmax (%)": 22}
{"Compound": "CN1CC[C@]23c4c5ccc(OC(=O)c6cc(-c7ccc(F)cc7F)ccc6O)c4O[C@H]2C(=O)CC[C@@]3(O)[C@H]1C5 [3-Diflunisal-OM]", "%-Tmax (%)": 340}
{"Compound": "COc1cc(C(=O)OC2=CC[C@@]3(O)[C@H]4Cc5ccc(O)c6c5[C@@]3(CCN4C)[C@H]2O6)ccc1O [6-Vanillate-OM]", "%-Tmax (%)": 97}
{"Compound": "CN1CC[C@]23c4c5ccc(O)c4O[C@H]2C(OC(=O)c2ccccc2O)=CC[C@@]3(O)[C@H]1C5 [6-(2-OH-Bz)-OM]", "%-Tmax (%)": 60}
{"Compound": "CN1CC[C@]23c4c5ccc(OC(=O)c6ccccc6O)c4O[C@H]2C(=O)CC[C@@]3(O)[C@H]1C5 [3-(2-OH-Bz)-OM]", "%-Tmax (%)": 62}

Now let's try a different one.
Could you tell me which %-Tmax is on file for CC(C(=O)Oc1ccc2c3c1O[C@H]1C(=O)CC[C@@]4(O)[C@@H](C2)N(C)CC[C@]314)c1cccc(C(=O)c2ccccc2)c1 (stereo partly drawn) [3-Ketoprofen-OM] ?
30

====

Experiment Summary: Oral PK profiles of conjugated oxymorphone in rats (released oxymorphone in plasma by LC-MS/MS)
Format: in vivo, Sprague-Dawley rats
Measurement Context: 2 mg/kg oxymorphone equivalent, relative to the OM control
Readout Kind: %-Cmax (%)
Answer with a number only, understood to be in %.

Please look up its %-Cmax: CN1CC[C@]23c4c5ccc(OC(=O)c6cc(-c7ccc(F)cc7F)ccc6O)c4O[C@H]2C(=O)CC[C@@]3(O)[C@H]1C5
52

====

Experiment Summary: Oral PK profiles of conjugated oxymorphone in rats (released oxymorphone in plasma by LC-MS/MS)
Assay type: in vivo, Sprague-Dawley rats
Measurement Context: 2 mg/kg oxymorphone equivalent, relative to the OM control
List of %-AUC values.
# number only, unit % dropped from output

Recorded results for 8 compounds are shown here.
{"Compound": "CN1CC[C@]23c4c5ccc(O)c4O[C@H]2C(OC(=O)c2ccccc2)=CC[C@@]3(O)[C@H]1C5 [Conjugate 6-Bz-OM]", "Unit Abbreviation": "%", "%-AUC": 78}
{"Compound": "CN1CC[C@]23c4c5ccc(OC(=O)c6ccccc6O)c4O[C@H]2C(=O)CC[C@@]3(O)[C@H]1C5", "Unit Abbreviation": "%", "%-AUC": 72}
{"Compound": "CC(C(=O)OC1=CCC2(O)C3Cc4ccc(O)c5c4C2(CCN3C)C1O5)c1cccc(C(=O)c2ccccc2)c1 (stereo not shown)", "Unit Abbreviation": "%", "%-AUC": 99}
{"Compound": "CN1CC[C@]23c4c5ccc(O)c4O[C@H]2C(OC(=O)c2cccc(N)c2)=CC[C@@]3(O)[C@H]1C5", "Unit Abbreviation": "%", "%-AUC": 46}
{"Compound": "COc1ccc(C(=O)OC2=CCC3(O)C4Cc5ccc(OC(=O)c6ccc(OC)cc6)c6c5C3(CCN4C)C2O6)cc1 (stereo not shown)", "Unit Abbreviation": "%", "%-AUC": 110}
{"Compound": "CN1CC[C@]23c4c5ccc(O)c4O[C@H]2C(OC(=O)/C=C/c2ccccc2)=CC[C@@]3(O)[C@H]1C5 [6-Cinnamate-OM]", "Unit Abbreviation": "%", "%-AUC": 77}
{"Compound": "CC(C(=O)Oc1ccc2c3c1O[C@H]1C(=O)CC[C@@]4(O)[C@@H](C2)N(C)CC[C@]314)c1cccc(C(=O)c2ccccc2)c1 (stereo partly shown)", "Unit Abbreviation": "%", "%-AUC": 159}
{"Compound": "CN1CC[C@]23c4c5ccc(OC(=O)c6cc(-c7ccc(F)cc7F)ccc6O)c4O[C@H]2C(=O)CC[C@@]3(O)[C@H]1C5", "Unit Abbreviation": "%", "%-AUC": 85}

May I ask what %-AUC has been recorded for COc1cc(C(=O)Oc2ccc3c4c2O[C@H]2C(=O)CC[C@@]5(O)[C@@H](C3)N(C)CC[C@]425)ccc1O [3-Vanillate-OM] ?
92

// same read-out, input: COc1cc(C(=O)OC2=CC[C@@]3(O)[C@H]4Cc5ccc(O)c6c5[C@@]3(CCN4C)[C@H]2O6)ccc1O [6-Vanillate-OM]
56

Please answer likewise for CN1CC[C@]23c4c5ccc(OC(=O)/C=C/c6ccccc6)c4O[C@H]2C(OC(=O)/C=C/c2ccccc2)=CC[C@@]3(O)[C@H]1C5 [3,6-(Cinnamate)2-OM]
38

Also CN1CC[C@]23c4c5ccc(O)c4O[C@H]2C(OC(=O)c2ccccc2O)=CC[C@@]3(O)[C@H]1C5 ?
134

Moving on to COc1ccc(C(=O)OC2=CC[C@@]3(O)[C@H]4Cc5ccc(O)c6c5[C@@]3(CCN4C)[C@H]2O6)cc1
69

====

Each entry below carries its reported %-AUC.
Experiment Summary: Oral PK profiles of conjugated oxymorphone in rats (released oxymorphone in plasma by LC-MS/MS)
Format: in vivo, Sprague-Dawley rats
Measurement Context: 2 mg/kg oxymorphone equivalent, relative to the OM control
Write the value in % as a bare number.

Look over these answered cases.
{"Molecule": "CN1CC[C@]23c4c5ccc(OC(=O)/C=C/c6ccccc6)c4O[C@H]2C(=O)CC[C@@]3(O)[C@H]1C5 [3-Cinnamate-OM]", "%-AUC, %": 190}
{"Molecule": "CC(=O)Oc1ccccc1C(=O)Oc1ccc2c3c1OC1C(=O)CCC4(O)C(C2)N(C)CCC314 (stereo not shown)", "%-AUC, %": 72}
{"Molecule": "COc1ccc(C(=O)Oc2ccc3c4c2O[C@H]2C(=O)CC[C@@]5(O)[C@@H](C3)N(C)CC[C@]425)cc1", "%-AUC, %": 100}

--- query ---
Which value of %-AUC has been reported for CC(C(=O)Oc1ccc2c3c1O[C@H]1C(=O)CC[C@@]4(O)[C@@H](C2)N(C)CC[C@]314)c1cccc(Oc2ccccc2)c1 (stereo partly shown) in the records?
59

====

Listed here: items and their measured %-Tmax.
Experiment Summary: Oral PK profiles of conjugated oxymorphone in rats (released oxymorphone in plasma by LC-MS/MS)
Assay type: in vivo, Sprague-Dawley rats
Measurement Context: 2 mg/kg oxymorphone equivalent, relative to the OM control
Record the result as a number with its unit.

Look up %-Tmax: COc1ccc(C(=O)OC2=CCC3(O)C4Cc5ccc(OC(=O)c6ccc(OC)cc6)c6c5C3(CCN4C)C2O6)cc1 (stereo not shown)
35%

Here is the next compound: CN1CC[C@]23c4c5ccc(O)c4O[C@H]2C(OC(=O)c2cccc(N)c2)=CC[C@@]3(O)[C@H]1C5
276%

// query: COc1ccc(C(=O)Oc2ccc3c4c2O[C@H]2C(=O)CC[C@@]5(O)[C@@H](C3)N(C)CC[C@]425)cc1
100%

Consider next the compound CN1CC[C@]23c4c5ccc(OC(=O)/C=C/c6ccccc6)c4O[C@H]2C(=O)CC[C@@]3(O)[C@H]1C5 [3-Cinnamate-OM] in the same way.
136%
